Target: Proteasome subunit beta type-8 (Homo sapiens, UniProt P28062)
Sequence (P28062 whole entry): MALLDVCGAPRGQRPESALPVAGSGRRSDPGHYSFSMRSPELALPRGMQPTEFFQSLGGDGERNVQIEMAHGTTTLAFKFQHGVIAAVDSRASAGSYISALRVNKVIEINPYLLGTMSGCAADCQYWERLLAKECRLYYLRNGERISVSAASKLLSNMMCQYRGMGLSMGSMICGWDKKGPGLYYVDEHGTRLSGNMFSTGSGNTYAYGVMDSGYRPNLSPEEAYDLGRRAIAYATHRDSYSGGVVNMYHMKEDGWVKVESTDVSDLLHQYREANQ
Experiment: Inhibition of human 20S immunoproteasome beta-5 using Suc-LLVY-AMC as substrate incubated for 15 mins measured for 45 mins by fluorescence assay
experimentalReadout: IC50 (nM)

cpdsmiles=C[C@H](O)[C@@H](NC(=O)OCc1ccccc1)C(=O)N[C@@H](C[C@]1(O)C(=O)Nc2ccccc21)C(=O)NCc1ccccc1 targetundertest="Proteasome subunit beta type-8 (Homo sapiens, UniProt P28062)" measvalue=572
cpdsmiles=C[C@H](NC(=O)c1ccc(OCc2ccccc2)cc1)C(=O)N[C@@H](C[C@]1(O)C(=O)Nc2ccccc21)C(=O)NCc1ccccc1 targetundertest="Proteasome subunit beta type-8 (Homo sapiens, UniProt P28062)" measvalue=170
cpdsmiles=C[C@H](NC(=O)Cc1cccc(Oc2ccccc2)c1)C(=O)N[C@@H](C[C@]1(O)C(=O)Nc2ccccc21)C(=O)NCc1ccccc1 targetundertest="Proteasome subunit beta type-8 (Homo sapiens, UniProt P28062)" measvalue=260
cpdsmiles=C[C@H](NC(=O)[C@H](Cc1ccc(OCc2ccccc2)cc1)NC(=O)OC(C)(C)C)C(=O)N[C@@H](C[C@]1(O)C(=O)Nc2ccccc21)C(=O)NCc1cccc2ccccc12 targetundertest="Proteasome subunit beta type-8 (Homo sapiens, UniProt P28062)" measvalue=1900
